Recorded values, source ChEMBL document CHEMBL2331335.

# Ratio CC50/IC50 annotations
Experiment: Selectivity index, ratio of CC50 for human HepG2.2.15 cells to IC50 for HBV infected in human HepG2.2.15 cells assessed as inhibition of viral surface antigen production
Format: functional

MOLECULE_SMILES: CC(=O)O[C@@H]1[C@@H](O)C[C@@H]2C(=CC[C@@H]3[C@@]2(C)C(=O)C[C@]2(C)[C@@H]([C@@](C)(O)C(=O)CCC(C)(C)OC(C)=O)[C@H](O)C[C@@]32C)C1(C)C
Ratio CC50/IC50: 1.3
--
MOLECULE_SMILES: CCC(=O)O[C@H]1C[C@@H]2C(=CC[C@@H]3[C@@]2(C)C(=O)C[C@]2(C)[C@@H]([C@@](C)(O)C(=O)CCC(C)(C)OC(C)=O)[C@H](O)C[C@@]32C)C(C)(C)[C@@H]1O
Ratio CC50/IC50: 8.1
--
MOLECULE_SMILES: CC(=O)O[C@H]1C[C@@H]2C(=CC[C@@H]3[C@@]2(C)C(=O)C[C@]2(C)[C@@H]([C@@](C)(O)C(=O)CCC(C)(C)OC(C)=O)[C@H](O)C[C@@]32C)C(C)(C)[C@@H]1OC(C)=O
Ratio CC50/IC50: 24.3
--
MOLECULE_SMILES: CC(=O)OC(C)(C)CCC(=O)[C@](C)(O)[C@H]1[C@H](O)C[C@@]2(C)[C@@H]3C[C@@H](O)[C@]4(OC(=O)c5cccc(Cl)c5)[C@@H](C[C@H](O)[C@@H](O)C4(C)C)[C@]3(C)C(=O)C[C@]12C
Ratio CC50/IC50: 15.3

Alright, here's another molecule for you.
Ask | So what's the measured Ratio CC50/IC50 for this one? CCOCC(=O)O[C@H]1C[C@@H]2C(=CC[C@@H]3[C@@]2(C)C(=O)C[C@]2(C)[C@@H]([C@@](C)(O)C(=O)CCC(C)(C)OC(=O)COCC)[C@H](OC(=O)COCC)C[C@@]32C)C(C)(C)[C@@H]1OC(=O)COCC
Reply | >6.4

---

Item-by-item account of IC50
Test system: Hepatitis B virus
Test: Antiviral activity against HBV infected in human HepG2.2.15 cells assessed as inhibition of viral e antigen production
Assay type: functional, organism-based
Settings: HepG2 2.2.15
Express your answer in µM, writing the number without its unit.

MOLECULE_SMILES: CC(=O)O[C@H]1C[C@@H]2C(=CC[C@@H]3[C@@]2(C)C(=O)C[C@]2(C)[C@@H]([C@@](C)(O)C(=O)CCC(C)(C)OC(C)=O)[C@H](O)C[C@@]32C)C(C)(C)[C@@H]1OC(C)=O
RESULT: 46.7
--
MOLECULE_SMILES: CC(=O)OC(C)(C)CCC(=O)[C@](C)(O)[C@H]1[C@H](O)C[C@@]2(C)[C@@H]3C[C@@H](O)[C@]4(OC(=O)c5cccc(Cl)c5)[C@@H](C[C@H](O)[C@@H](O)C4(C)C)[C@]3(C)C(=O)C[C@]12C
RESULT: 30.9
--
MOLECULE_SMILES: CCC(=O)O[C@@H]1[C@@H](O)C[C@@H]2C(=CC[C@@H]3[C@@]2(C)C(=O)C[C@]2(C)[C@@H]([C@@](C)(O)C(=O)CCC(C)(C)OC(C)=O)[C@H](O)C[C@@]32C)C1(C)C
RESULT: 17

Below: the item to evaluate.
Ask | What value of IC50 has been reported for the following compound? CCC(=O)O[C@H]1C[C@@H]2C(=CC[C@@H]3[C@@]2(C)C(=O)C[C@]2(C)[C@@H]([C@@](C)(O)C(=O)CCC(C)(C)OC(C)=O)[C@H](O)C[C@@]32C)C(C)(C)[C@@H]1O
Reply | 14.4

---

Test system: Hepatitis B virus
Assay: Antiviral activity against HBV infected in human HepG2.2.15 cells assessed as inhibition of viral e antigen production
Type: functional, organism-based
Conditions: HepG2 2.2.15
pIC50: −log10 of the molar value.
Item-by-item account of pIC50

Would you please look over these solved cases?
MOLECULE_SMILES: CC(C)(O)CCC(=O)[C@](C)(O)[C@H]1[C@H](O)C[C@@]2(C)[C@@H]3CC=C4[C@@H](C[C@H](O)[C@@H](O)C4(C)C)[C@]3(C)C(=O)C[C@]12C
RESULT: < 4.22

MOLECULE_SMILES: CC(=O)OC(C)(C)CCC(=O)[C@](C)(O)[C@H]1[C@H](O)C[C@@]2(C)[C@@H]3C[C@H]4O[C@@]45[C@@H](C[C@H](O)[C@@H](O)C5(C)C)[C@]3(C)C(=O)C[C@]12C
RESULT: < 2.76

Proceeding to the next compound to report its pIC50.
Ask | Using the record for COc1cccc(/C=C/C(=O)O[C@H]2C[C@@H]3C(=CC[C@@H]4[C@@]3(C)C(=O)C[C@]3(C)[C@@H]([C@@](C)(O)C(=O)CCC(C)(C)OC(C)=O)[C@H](OC(=O)/C=C/c5cccc(OC)c5)C[C@@]43C)C(C)(C)[C@@H]2OC(=O)/C=C/c2cccc(OC)c2)c1 , report its pIC50.
Reply | < 3.14

---

Assay: Cytotoxicity against human HepG2.2.15 cells
Assay type: cell-based, HepG2 2.2.15
OBSERVED_PROPERTY: CC50

COMPOUND: CCOCC(=O)O[C@H]1C[C@@H]2C(=CC[C@@H]3[C@@]2(C)C(=O)C[C@]2(C)[C@@H]([C@@](C)(O)C(=O)CCC(C)(C)OC(C)=O)[C@H](OC(=O)COCC)C[C@@]32C)C(C)(C)[C@@H]1OC(=O)COCC
CC50: > 560 µM
--
COMPOUND: COc1cccc(/C=C/C(=O)O[C@H]2C[C@@H]3C(=CC[C@@H]4[C@@]3(C)C(=O)C[C@]3(C)[C@@H]([C@@](C)(O)C(=O)CCC(C)(C)OC(C)=O)[C@H](OC(=O)/C=C/c5cccc(OC)c5)C[C@@]43C)C(C)(C)[C@@H]2OC(=O)/C=C/c2cccc(OC)c2)c1
CC50: > 719 µM
--
COMPOUND: CCC(=O)O[C@H]1C[C@H]2[C@]3(C)C(=O)C[C@]4(C)[C@@H]([C@@](C)(O)C(=O)CCC(C)(C)OC(C)=O)[C@H](OC(=O)CC)C[C@@]4(C)[C@@H]3C[C@H]3O[C@]32C(C)(C)[C@@H]1OC(=O)CC
CC50: > 1670 µM
--
COMPOUND: CCC(=O)O[C@@H]1[C@@H](O)C[C@@H]2C(=CC[C@@H]3[C@@]2(C)C(=O)C[C@]2(C)[C@@H]([C@@](C)(O)C(=O)CCC(C)(C)OC(C)=O)[C@H](O)C[C@@]32C)C1(C)C
CC50: 100 µM

In the following, a different compound is considered.
Ask | If you can, please state the reported CC50 value of C[C@H](Cn1cnc2c(N)ncnc21)OCP(=O)(O)O [TENOFOVIR ANHYDROUS] .
Reply | > 1740 µM

---

System: Hepatitis B virus
Assay: Antiviral activity against HBV infected in human HepG2.2.15 cells assessed as inhibition of viral surface antigen production
Assay type: functional, organism-based
Conditions: HepG2 2.2.15
pIC50: −log10 of the molar value.
OBSERVED_PROPERTY: pIC50

Examples from the recorded data:
MOLECULE_SMILES: CC(=O)O[C@H]1C[C@@H]2C(=CC[C@@H]3[C@@]2(C)C(=O)C[C@]2(C)[C@@H]([C@@](C)(O)C(=O)CCC(C)(C)OC(C)=O)[C@H](OC(C)=O)C[C@@]32C)C(C)(C)[C@@H]1OC(C)=O
RESULT: < 3.09

MOLECULE_SMILES: COCC(=O)O[C@H]1C[C@H]2[C@]3(C)C(=O)C[C@]4(C)[C@@H]([C@@](C)(O)C(=O)CCC(C)(C)OC(C)=O)[C@H](OC(=O)COC)C[C@@]4(C)[C@@H]3C[C@H]3O[C@]32C(C)(C)[C@@H]1OC(=O)COC
RESULT: < 2.95

MOLECULE_SMILES: CC(=O)O[C@H]1C[C@H]2[C@]3(C)C(=O)C[C@]4(C)[C@@H]([C@@](C)(O)C(=O)CCC(C)(C)OC(C)=O)[C@H](OC(C)=O)C[C@@]4(C)[C@@H]3C[C@@H](O)[C@@]2(OC(=O)c2cccc(Cl)c2)C(C)(C)[C@@H]1OC(C)=O
RESULT: 3.75

Let us move to another entry and its pIC50.
Ask | # lookup: pIC50 of CC(C)(O)CCC(=O)[C@](C)(O)[C@H]1[C@H](O)C[C@@]2(C)[C@@H]3CC=C4[C@@H](C[C@H](O)[C@@H](O)C4(C)C)[C@]3(C)C(=O)C[C@]12C
Reply | < 4.22
